Readings of GI50 for the listed compounds
Tested on: HCT-116
Assay: NCI tumour cell line growth inhibition, 48 h
Calls of active or inactive are those of the source. Rule as the data show it: active = GI50 up to about 1.1 µM and inactive = higher.

| compound | GI50 |
| --- | --- |
| CC(C)(Cc1ccccc1)N1C(=O)N1C(C)(C)Cc1ccccc1 | 40.6 µM (inactive) |
| COc1cc([C@@H]2c3cc4c(cc3[C@@H](c3c(O)cc(O)c5c3O[C@H](c3ccc(O)c(O)c3)[C@H](OC(=O)c3cc(O)c(O)c(O)c3)C5)[C@H]3COC(=O)[C@H]23)OCO4)cc(OC)c1O | 23.7 µM (inactive) |
| NCCC1([N+](=O)[O-])CCNCC1 | > 100 µM (inactive) |
| CCCCn1cnnc1NS(=O)(=O)c1cc(C)c(Cl)cc1SCC(=O)O | > 10 µM (inactive) |
| COC(=O)C(NC(=O)C(CC(=O)OC(C)(C)C)NC(=O)OC(C)(C)C)C(O)c1ccccc1 (centres undefined) | > 100 µM (inactive) |
| CCCOP1(=O)C=C(C)C(Cl)=C(C)C1 (centres undefined) | 18 µM (inactive) |
| N[C@H](Cc1ccc2oc3cc(=O)c4ccccc4c-3nc2c1)C(=O)O | 46.3 µM (inactive) |
| O=C(CC(=O)N1N=C(N(c2ccccc2)c2ccccc2)CC1c1ccccc1)Nc1ccccc1 (centres undefined) | > 100 µM (inactive) |
| O=Nc1c(-c2c(O)[nH]c3ccc(I)cc23)[nH]c2ccccc12 | 3.01 µM (inactive) |

----------
System: EKVX
Assay: NCI tumour cell line growth inhibition, 48 h
Activity calls are given as the source filed them. Rule as the data show it: active = GI50 up to about 1.1 µM and inactive = higher.
quantity-name: GI50

| compound | quantity-name | recorded-value |
| --- | --- | --- |
| CCOP(=O)(O)C(Nc1ccc(/N=N/c2ccccc2)cc1)c1ccc(C(Nc2ccc(/N=N/c3ccccc3)cc2)P(=O)(O)OCC)cc1 (stereo not given) | GI50 | 18.7 µM (inactive) |
| COc1ccc(/C=N/n2c(Cc3ccc(Cl)cc3)n[nH]c2=O)c(OC)c1 | GI50 | 33.1 µM (inactive) |
| C/C(CCn1[nH]c(=O)ccc1=O)=N\NC(=O)C(=O)NN | GI50 | > 100 µM (inactive) |
| Cc1ccc(Cc2nnc(S)[nH]2)cc1 | GI50 | > 100 µM (inactive) |
| COC(=O)/C=C/c1ccc(OP(=O)(O)O)c(OC)c1 | GI50 | > 100 µM (inactive) |
| CN(C)NC(=O)NC12CC3CC(CC(C3)C1)C2 | GI50 | > 100 µM (inactive) |
| COC(=O)C1Cc2c([nH]c3ccccc23)C(c2cccc(O)c2)N1 (stereo not given) | GI50 | 40.3 µM (inactive) |
| CN(C)C(=S)/N=c1\ss/c(=N\S(=O)(=O)c2ccccc2)n1N(C)C | GI50 | > 100 µM (inactive) |
| COc1ccc(NS(=O)(=O)c2ccc(NC(NC(=O)CC(C)C)(C(F)(F)F)C(F)(F)F)cc2)nn1 | GI50 | > 100 µM (inactive) |
| CC(=O)Nc1c(S(=O)(=O)c2ccccc2)c(C)c(C)n1Cc1ccccc1 | GI50 | > 100 µM (inactive) |

----------
System: LOX IMVI
Assay: NCI tumour cell line growth inhibition, 48 h
Activity calls are given as the source filed them. Cut-off read from the data, not from the text of the source: active = GI50 up to about 1.1 µM and inactive = higher.
Classes used: y = active, n = inactive

| compound | class-label |
| --- | --- |
| Cc1ccc(-c2nc(N/N=C/C=C/c3ccccc3)c3ccccc3n2)cc1 | n |
| C=CCc1oc(C)nc1CCCC | n |
| N/N=C(\N)SCc1ccc(N=C=S)cc1 | n |
| O=C(O)c1ccc(C(=O)c2ccccc2)c(C(=O)O)c1 | n |
| Cn1c2ccccc2n2c3ccccc3c(=O)c(C#N)c12 | n |
| CCOP(=S)(OCC)Oc1ccc2c(c1)OC(=O)C1(Cl)C2(C)C2(Cl)C(=O)Oc3cc(OP(=S)(OCC)OCC)ccc3C12C (stereo unspecified) | n |
| CC[C@@]1(O)C(=O)OCc2c1cc1n(c2=O)Cc2c-1nc1ccccc1c2CC[Si](C)(C)C | y |
| COc1cc2c(cc1O)C1C(O)C(O)C=C3CCN(C2)C31 (stereo unspecified) | y |
| CC1(C)OC2OC(COC(=O)C=[N+]=[N-])C3OC(C)(C)OC3C2O1 (stereo unspecified) | n |
| Cc1cc(Cl)ccc1NC(=O)C1C(=O)N(c2ccc(Cl)cc2C)C(=O)/C1=N\N (stereo unspecified) | n |
| Oc1ccc2c(c1)c1c(n2CCN2CCOCC2)-c2ccccc2CC1 | n |

From: ChEMBL document CHEMBL1201862
